- EXPERIMENTAL_TARGET: T1, recombinant human FGF23 (R179Q) (human, UniProt Q9GZV9 25-251)
- T1 construct: also called rhFGF23(R179Q); hFGF23(R179Q)
- T1 sequence (looked up): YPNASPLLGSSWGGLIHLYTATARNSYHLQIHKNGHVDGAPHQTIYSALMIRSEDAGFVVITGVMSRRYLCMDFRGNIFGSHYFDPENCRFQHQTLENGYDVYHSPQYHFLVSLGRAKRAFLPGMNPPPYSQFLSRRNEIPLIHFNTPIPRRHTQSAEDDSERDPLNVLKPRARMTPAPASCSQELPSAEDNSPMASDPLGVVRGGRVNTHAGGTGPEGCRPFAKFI
- TEST_PROTOCOL: SPR, antibody captured on hIgG chip, rhFGF23(R179Q) analyte
kon overview

{"BINDER": "UGX146 (antibody, human IgG1, kappa, V domains shown, also called LC:Y94F) VH: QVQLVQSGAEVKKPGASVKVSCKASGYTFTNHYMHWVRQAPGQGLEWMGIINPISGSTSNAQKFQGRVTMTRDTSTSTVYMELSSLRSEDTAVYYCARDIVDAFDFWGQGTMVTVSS VL: AIQLTQSPSSLSASVGDRVTITCRASQGISSALVWYQQKPGKAPKLLIYDASSLESGVPSRFSGSGSGTDFTLTISSLQPEDFATYYCQQFNDFFTFGPGTKVDIKR", "kon": "5.14e+06 M⁻¹ s⁻¹"}
{"BINDER": "UGX175 (antibody, human IgG1, kappa, V domains shown, also called HC:A103S; A103S) VH: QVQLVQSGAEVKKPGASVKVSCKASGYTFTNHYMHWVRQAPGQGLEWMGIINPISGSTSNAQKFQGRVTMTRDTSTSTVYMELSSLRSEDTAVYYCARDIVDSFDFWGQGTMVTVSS VL: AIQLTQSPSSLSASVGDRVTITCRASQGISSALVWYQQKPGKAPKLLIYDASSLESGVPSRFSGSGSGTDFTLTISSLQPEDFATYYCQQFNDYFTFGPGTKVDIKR", "kon": "1.24e+07 M⁻¹ s⁻¹"}
